IC50 listing for selected compounds.
Target: PI3K α (Homo sapiens, UniProt P42336)
Construct: purchased Upstate
Sequence (P42336 whole entry): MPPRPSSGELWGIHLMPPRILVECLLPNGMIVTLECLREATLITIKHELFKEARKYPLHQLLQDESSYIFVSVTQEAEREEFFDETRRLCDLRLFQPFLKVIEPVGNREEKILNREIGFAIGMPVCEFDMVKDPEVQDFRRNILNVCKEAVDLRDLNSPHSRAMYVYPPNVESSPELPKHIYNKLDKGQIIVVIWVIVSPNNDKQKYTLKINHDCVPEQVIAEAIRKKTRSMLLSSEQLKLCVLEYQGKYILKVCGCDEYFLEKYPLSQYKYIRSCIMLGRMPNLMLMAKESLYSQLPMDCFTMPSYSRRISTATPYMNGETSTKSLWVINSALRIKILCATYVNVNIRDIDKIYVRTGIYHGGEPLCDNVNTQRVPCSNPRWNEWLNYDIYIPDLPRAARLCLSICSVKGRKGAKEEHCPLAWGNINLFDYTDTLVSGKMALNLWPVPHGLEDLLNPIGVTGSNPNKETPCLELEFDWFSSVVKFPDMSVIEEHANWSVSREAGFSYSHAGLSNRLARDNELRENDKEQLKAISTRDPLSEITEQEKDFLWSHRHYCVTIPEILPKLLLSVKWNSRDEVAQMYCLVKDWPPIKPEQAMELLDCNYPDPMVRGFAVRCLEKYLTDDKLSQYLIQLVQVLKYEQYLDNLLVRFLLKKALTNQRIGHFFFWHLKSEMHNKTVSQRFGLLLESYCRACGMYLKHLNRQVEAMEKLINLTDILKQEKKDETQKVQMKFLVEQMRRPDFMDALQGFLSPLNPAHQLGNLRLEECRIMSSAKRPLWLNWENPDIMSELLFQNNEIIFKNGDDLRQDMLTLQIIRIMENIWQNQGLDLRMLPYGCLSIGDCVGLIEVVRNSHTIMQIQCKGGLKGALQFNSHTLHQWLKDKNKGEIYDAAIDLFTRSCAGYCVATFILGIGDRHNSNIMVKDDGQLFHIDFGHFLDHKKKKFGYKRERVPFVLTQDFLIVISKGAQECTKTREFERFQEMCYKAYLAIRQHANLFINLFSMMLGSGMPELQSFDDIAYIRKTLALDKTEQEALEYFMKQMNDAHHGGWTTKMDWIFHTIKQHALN
Sequence (P27986 whole entry partner): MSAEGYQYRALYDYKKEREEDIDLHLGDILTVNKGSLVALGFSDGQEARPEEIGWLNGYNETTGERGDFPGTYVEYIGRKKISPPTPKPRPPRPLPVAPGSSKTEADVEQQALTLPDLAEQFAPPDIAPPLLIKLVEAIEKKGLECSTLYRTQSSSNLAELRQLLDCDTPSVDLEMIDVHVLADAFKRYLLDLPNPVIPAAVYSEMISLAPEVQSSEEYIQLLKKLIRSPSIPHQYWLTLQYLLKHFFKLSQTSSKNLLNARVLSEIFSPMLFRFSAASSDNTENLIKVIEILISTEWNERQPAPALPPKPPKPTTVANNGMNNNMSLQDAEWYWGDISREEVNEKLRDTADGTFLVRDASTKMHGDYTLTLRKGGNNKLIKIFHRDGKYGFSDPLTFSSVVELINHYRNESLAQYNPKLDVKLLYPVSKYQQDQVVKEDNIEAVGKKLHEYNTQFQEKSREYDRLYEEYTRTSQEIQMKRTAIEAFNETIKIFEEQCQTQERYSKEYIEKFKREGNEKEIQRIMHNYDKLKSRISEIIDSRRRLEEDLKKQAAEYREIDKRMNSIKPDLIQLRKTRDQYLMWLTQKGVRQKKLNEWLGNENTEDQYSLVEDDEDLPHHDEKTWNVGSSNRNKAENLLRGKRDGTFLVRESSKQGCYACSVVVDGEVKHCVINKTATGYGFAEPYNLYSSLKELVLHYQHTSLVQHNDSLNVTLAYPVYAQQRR
Assay: PI 3-Kinase HTRF inhibition assay, PI3K α
Type: biochemical
Settings: in vitro; read-out: PI3K α IC50

Cc1nccn1C1CN(c2cnc3ccc(-c4ccc5oc(N)nc5c4)nc3n2)C1 [Compound 50]
< 100 nM

Prompt: Endpoint output: IC50 of CN1CCN(C2CN(c3cnc4ccc(-c5ccc6oc(N)nc6c5)nc4c3)C2)CC1(C)C [Compound 83] . Value?
Response: < 100 nM

Prompt: Would you mind telling me what IC50 value was observed for CN1CCN(c2cnc3ccc(-c4ccc5oc(N)nc5c4)nc3c2)CC1 [Compound 24] ?
Response: < 100 nM
